Provenance of the data: PubChem BioAssay AID1745844

Tested on: rodent lifetime carcinogenesis bioassay, tumor incidence TD50
Test: carcinogenic potency in animals, long-term in vivo studies, CPDB compilation (AID 1745844)
Details: rat; strain Fischer 344; females; in drinking water; site: tongue; lesion: several types; types named in the paper; dosed 37 weeks; study length 85 weeks
experimental readout: TD50

Could you share which TD50 value was measured for CC(O)CN(CC(O)CO)N=O (stereo unspecified) ? 0.0888 mg/kg/day

----------
Tested on: rodent lifetime carcinogenesis bioassay, tumor incidence TD50
Assay: carcinogenic potency in animals, long-term in vivo studies, CPDB compilation (AID 1745844)
Settings: mouse; strain Swiss albino; males; in drinking water; site: stomach, glandular; lesion: polypoid adenoma; dosed 97 weeks; study length 102 weeks
Active and inactive are the calls of the source. No rule for the calls is given here.
experimental readout: TD50

Given the entry CN(N)C=O , report its measured TD50. 3.43 mg/kg/day (inactive)

----------
Tested on: rodent lifetime carcinogenesis bioassay, tumor incidence TD50
Experiment: carcinogenic potency in animals, long-term in vivo studies, CPDB compilation (AID 1745844)
Conditions: mouse; strain Swiss; males; in drinking water; site: liver; lesion: several types; types named in the paper; dosed 113 weeks; study length 113 weeks
experimental readout: TD50 (mg/kg/day)
The reply should contain only the number, in mg/kg/day.

Query: TD50; subject: NN 29.8

----------
System: rodent lifetime carcinogenesis bioassay, tumor incidence TD50
Test: carcinogenic potency in animals, long-term in vivo studies, CPDB compilation (AID 1745844)
Conditions: mouse; strain B6C3F1; males; inhaled; site: liver; lesion: hepatocellular carcinoma; dosed 105 weeks; study length 105 weeks
experimental readout: TD50 (mg/kg/day)
Answer in mg/kg/day, number only, no unit symbol.

Record request: TD50 value, item [O]=[Mo](=[O])=[O] 14.8

----------
Test system: rodent lifetime carcinogenesis bioassay, tumor incidence TD50
Assay: carcinogenic potency in animals, long-term in vivo studies, CPDB compilation (AID 1745844)
Conditions: rat; strain Fischer 344; females; in feed; site: lung; lesion: alveolar/bronchiolar adenoma; dosed 104 weeks; study length 105 weeks
experimental readout: TD50
Dear colleague, please send the value followed by its unit.

Consider the molecule shown here: CN(C)NC(=O)CCC(=O)O What is its recorded TD50? 4890 mg/kg/day

----------
Tested on: rodent lifetime carcinogenesis bioassay, tumor incidence TD50
Experiment: carcinogenic potency in animals, long-term in vivo studies, CPDB compilation (AID 1745844)
Details: rat; strain Wistar; males; inhaled; site: liver; lesion: hepatoma; dosed 52 weeks; study length 127 weeks
experimental readout: TD50 (mg/kg/day)
Just the number please, in mg/kg/day, no unit attached.

Reported TD50 for C=CCl : what is it? 0.728

----------
Tested on: rodent lifetime carcinogenesis bioassay, tumor incidence TD50
Test: carcinogenic potency in animals, long-term in vivo studies, CPDB compilation (AID 1745844)
Conditions: rat; strain Donryu; females; in drinking water; site: liver; lesion: hepatocellular adenoma; dosed 65 weeks; study length 65 weeks
experimental readout: TD50 (mg/kg/day)
// note: answer is a bare numeric in mg/kg/day

Which TD50 is listed for CCCCCN(N=O)C(N)=O ? 13.3

----------
Test system: rodent lifetime carcinogenesis bioassay, tumor incidence TD50
Test: carcinogenic potency in animals, long-term in vivo studies, CPDB compilation (AID 1745844)
Conditions: rat; strain Charles River CD (Sprague-Dawley); females; in feed; site: any site (literature study); lesion: several types; types named in the paper; dosed 78 weeks; study length 78 weeks
experimental readout: TD50
Answer format reminder: number followed by unit.

Request - read-out TD50 | tested on rodent lifetime carcinogenesis bioassay, tumor incidence TD50 | compound CCN(CC)C(=S)SSC(=S)N(CC)CC 193 mg/kg/day

----------
System: rodent lifetime carcinogenesis bioassay, tumor incidence TD50
Assay: carcinogenic potency in animals, long-term in vivo studies, CPDB compilation (AID 1745844)
Settings: rat; strain Fischer 344; males; by gavage; site: forestomach; lesion: carcinoma; dosed 30 weeks; study length 108 weeks
experimental readout: TD50

For the compound CCCCN(CCCC)N=O , what TD50 is on record? 0.914 mg/kg/day

----------
Tested on: rodent lifetime carcinogenesis bioassay, tumor incidence TD50
Experiment: carcinogenic potency in animals, long-term in vivo studies, CPDB compilation (AID 1745844)
Conditions: mouse; strain B6C3F1; females; in feed; site: liver; lesion: hepatocellular carcinoma; dosed 78 weeks; study length 96 weeks
experimental readout: TD50

O=[N+]([O-])c1ccc2c3c(cccc13)CC2 | 45.8 mg/kg/day

Okay, now this compound:
Form field: reported TD50 of Cc1ccc([N+](=O)[O-])cc1N 288 mg/kg/day

----------
System: rodent lifetime carcinogenesis bioassay, tumor incidence TD50
Assay: carcinogenic potency in animals, long-term in vivo studies, CPDB compilation (AID 1745844)
Conditions: hamster; strain Syrian Golden; males; by gavage; site: any site (literature study); lesion: several types; types named in the paper; dosed 35 weeks; study length 65 weeks
experimental readout: TD50 (mg/kg/day)
A number alone suffices; assume mg/kg/day.

Hello, I am looking for reported TD50 with rodent lifetime carcinogenesis bioassay, tumor incidence TD50 for O=NN1CCOC1 . Could you help? 0.267

----------
Tested on: rodent lifetime carcinogenesis bioassay, tumor incidence TD50
Experiment: carcinogenic potency in animals, long-term in vivo studies, CPDB compilation (AID 1745844)
Details: rat; strain Fischer 344; males; in drinking water; site: liver; lesion: neoplastic nodule; dosed 30 weeks; study length 95 weeks
experimental readout: TD50 (mg/kg/day)
Record the value in mg/kg/day, omitting the unit from your answer.

TD50 for CCN=[N+](C)[O-] ? 664

----------
Tested on: rodent lifetime carcinogenesis bioassay, tumor incidence TD50
Test: carcinogenic potency in animals, long-term in vivo studies, CPDB compilation (AID 1745844)
Conditions: mouse; strain B6C3F1; males; by gavage; site: adrenal medulla; lesion: pheochromocytoma, benign; dosed 104 weeks; study length 105 weeks
experimental readout: TD50

Give TD50 (rodent lifetime carcinogenesis bioassay, tumor incidence TD50) of the following molecule: c1ccoc1 20.1 mg/kg/day

----------
Tested on: rodent lifetime carcinogenesis bioassay, tumor incidence TD50
Assay: carcinogenic potency in animals, long-term in vivo studies, CPDB compilation (AID 1745844)
Details: rat; strain Fischer 344; females; in drinking water; site: thyroid gland; lesion: one or several types; types not named; dosed 106 weeks; study length 131 weeks
The source made the active and inactive calls. The rule behind the calls is not given here.
experimental readout: TD50

Lab note: need TD50 with rodent lifetime carcinogenesis bioassay, tumor incidence TD50 for entry Cc1[nH]cnc1CSCCN=C(NC#N)N(C)N=O , please look it up. 18.8 mg/kg/day (inactive)

----------
System: rodent lifetime carcinogenesis bioassay, tumor incidence TD50
Experiment: carcinogenic potency in animals, long-term in vivo studies, CPDB compilation (AID 1745844)
Conditions: rat; strain Fischer 344; females; in drinking water; site: liver; lesion: hepatocellular carcinoma; dosed 31 weeks; study length 55 weeks
Calls of active or inactive are those of the source. How the calls were made is not given here.
experimental readout: TD50

Looking for the measured TD50 of CC(=O)CNCC(O)C(O)N=O (stereo unspecified) , can you help? 1.3 mg/kg/day (inactive)

----------
System: rodent lifetime carcinogenesis bioassay, tumor incidence TD50
Assay: carcinogenic potency in animals, long-term in vivo studies, CPDB compilation (AID 1745844)
Conditions: mouse; strain C57BL/6; males; in feed; site: all sites; lesion: malignant lymphoma, histiocytic type; dosed 52 weeks; study length 69 weeks
Known TD50 of a selection of molecules
Answer in mg/kg/day, number only, no unit symbol.

Cc1ccc(NC(N)=O)cc1 | 265

Which TD50 reading was recorded for the molecule CCCCCC(N)=O ? 2140

----------
Test system: rodent lifetime carcinogenesis bioassay, tumor incidence TD50
Assay: carcinogenic potency in animals, long-term in vivo studies, CPDB compilation (AID 1745844)
Details: rat; strain Wistar; males; in feed; site: esophagus; lesion: several types; types named in the paper; dosed 90 weeks; study length 102 weeks
experimental readout: TD50

Tell me the measured TD50 of O=P(O)(OCC(Br)CBr)OCC(Br)CBr (stereo unspecified) , please. 45.1 mg/kg/day

----------
Tested on: rodent lifetime carcinogenesis bioassay, tumor incidence TD50
Assay: carcinogenic potency in animals, long-term in vivo studies, CPDB compilation (AID 1745844)
Settings: rat; strain Fischer 344; males; in feed; site: adrenal medulla; lesion: pheochromocytoma, malignant; dosed 95 weeks; study length 95 weeks
experimental readout: TD50
Answer format reminder: number followed by unit.

Enter reported TD50 observed with rodent lifetime carcinogenesis bioassay, tumor incidence TD50 for CC1(C)C(=O)Nc2ccc(C3=NNC(=O)CC3)cc21 23.8 mg/kg/day

----------
Tested on: rodent lifetime carcinogenesis bioassay, tumor incidence TD50
Assay: carcinogenic potency in animals, long-term in vivo studies, CPDB compilation (AID 1745844)
Details: rat; strain Fischer 344; males; in feed; site: liver; lesion: hepatocellular carcinoma; dosed 37 weeks; study length 104 weeks
experimental readout: TD50

Would you kindly share the measured TD50 for Cc1cccc(Nc2cc(Cl)nc(SCC(=O)O)n2)c1C ? 92.6 mg/kg/day
